melting point values, listed per item

// solved cases for melting point follow
COC(CC1=C(C#N)C(c2cccc3nonc23)c2c[nH]nc2N1)OC (stereo not given) = 115 °C
O=C(O)/C=C/c1ccc(-c2nc3c(=O)n(CC4CCCCC4)c(=S)n(CC4CCCCC4)c3[nH]2)cc1 = > 300 °C

Entry C=CCNC(=O)O[C@H]1C[C@@H](C(=O)OC)[C@]2(C)CC[C@H]3C(=O)O[C@H](c4ccoc4)C[C@]3(C)[C@H]2C1=O , melting point reported as 196 to 199 °C

Entry O=c1nc(N(Cc2nnn[nH]2)c2ccc(Cl)cc2)sc2ncccc12 , melting point reported as 258 to 259 °C

Entry COc1cc2c(=O)n(CC3CCCO3)c3c4cc5c(cc4ncc3c2cc1OC)OCO5 (stereo not given) , melting point reported as 270 to 273 °C

====

OBSERVATION TYPE: melting point (°C)

// solved cases for melting point follow
O=C(O)Cc1ccc(C(=O)c2cccc(C(F)(F)F)c2)s1 = 120
Cc1csc(NCCN2CCC(Nc3nc4ccccc4n3Cc3ccc(F)cc3)CC2)n1 = 184

A. Cc1nc(-c2ccc(C(F)(F)F)cc2)oc1COc1ccc(OCc2nn[nH]n2)cc1
B. CCCCOC(=O)c1ccc2ccc(C=O)nc2c1OC(=O)C(C)(C)C
Identify the item whose melting point is the smaller number: A or B Field: selected label. Fill in the label of the entry you choose.
B
(B: 108 °C, A: 156 °C)

====

melting point values, listed per item

// solved cases for melting point follow
CC#CCOc1ccc(S(=O)(=O)N[C@H]2CCCC[C@H]2C(=O)NO)cc1 = 140 to 145 °C
FC(F)(F)c1ccc2nc(CN3CCN(c4ccc(Cl)cc4)CC3)cn2c1 = 128 to 135 °C

Entry ON=C(CCC1CCN(Cc2ccccc2)CC1)c1ccc(N2CCCC2)cc1 , melting point reported as 153 to 158 °C

Entry ON=C(c1ccc(Cl)cc1)C1(n2cncn2)CC1 , melting point reported as 186 to 218 °C

====

melting point values, listed per item

// solved cases for melting point follow
CNC(=N)NC(=O)c1nc(Cl)c(NC2CCCC2)nc1N = 184 to 187 °C
COC(=O)c1c(C)c(N=O)c2ccccn12 = 131 to 132 °C
CC1(S(C)(=O)=O)C(I)=C(S(C)(=O)=O)C=CC1C(=O)O (centres undefined) = 66 to 67 °C

Entry CN1C(=O)CCc2cccc(N3CCN(CCCCOc4ccc5c(n4)NC(=O)NCC5)CC3)c21 , melting point reported as 80 to 82 °C

====

OBSERVATION TYPE: melting point (°C)

COC1=C(c2csc(NC(=O)c3cc4ccccc4[nH]3)n2)C=CC(Cl)(OC)C1 (stereo unspecified) = 293

P. CC1CCN(c2c(-c3ccc(F)cc3Cl)c(C#N)nc3ncnn23)CC1
Q. CCC(O)(CC(=O)OC(C)(C)C)c1cc[nH]c(=O)c1 (stereo unspecified)
Rank P against Q by their melting point values and give the higher one. Field: selected label. Fill in the label of the entry you choose.
P

====

OBSERVATION TYPE: melting point

// solved cases for melting point follow
Cc1c(C#N)sc2nc(-c3ccc([N+](=O)[O-])cc3)nc(N3CCNCC3)c12 = 250 °C
CCC(=O)C(CCCCCl)NC(=O)c1ccc(C)cc1 (centres undefined) = 85 to 86 °C
CCCC[C@H](NC(=O)[C@H](CC(C)C)NC(=O)c1ccccc1C)C(=O)CSCc1ccco1 = 118 to 119 °C

Entry CC(C)(C)OC(=O)NCCNC(=O)c1cc([N+](=O)[O-])ccn1 , melting point reported as 130 to 131 °C

Entry O=S(=O)(Cc1ccccc1)c1cccc2c1ccn2-c1ccnc(N[C@H]2CC[C@H](O)CC2)n1 , melting point reported as 132 to 134 °C

Entry O=C(NN1CCN(Cc2c[nH]c3ccccc23)CC1)c1ccccc1 , melting point reported as 176 to 178 °C

Entry COc1cccc2c(O)c(C(=O)NCCCCN3CCN(C(c4ccccc4)c4ccccc4)CC3)cnc12 , melting point reported as 209 to 212 °C

Entry O=C(Cc1ccccc1Br)NCC1OC(n2cc(Br)c(=O)[nH]c2=O)CC1O (centres undefined) , melting point reported as 222 to 223 °C

====

melting point values, listed per item

// solved cases for melting point follow
COc1ccc(Cc2nc3cnc4cc(-c5ccccc5)ccc4c3n2CCOc2ccccc2)cc1 = 205 to 206 °C
O=C(NCc1ccc(Cl)cc1)c1cnc2cc(I)ccc2c1O = 248 to 250 °C
COC(=O)C1(c2ccc(OCCN)cc2)CC1 = 119 to 122 °C
CCOC(=O)C(Cl)=Cc1cc(-n2ncc(C(F)(F)F)cc2=O)c(F)cc1Cl = 139 to 140 °C
CCOP(=O)(OCC)C(c1cccnc1)C(O)c1ccccc1 (stereo unspecified) = 238 °C

Entry CCCCSc1ccc(C=O)cc1[N+](=O)[O-] , melting point reported as 93 °C

Entry COc1ccc(C(=O)Nc2ccccc2)cc1NC(=O)CC(=O)OCc1ccccc1 , melting point reported as 168 to 171 °C

Entry Cc1cc(C(=O)CS(C)(=O)=O)cc(C)c1N , melting point reported as 179 to 180 °C

Entry Cc1cc(C2=NN(C3=NCCS3)C(C)Cc3cc4c(cc32)OCO4)ccc1[N+](=O)[O-] (stereo unspecified) , melting point reported as 130 to 135 °C

Entry O=[N+]([O-])c1ccc2c(c1)C(c1ccccn1)=CC(C(F)(F)F)(C(F)(F)F)O2 , melting point reported as 105 to 107 °C

Entry CC(=O)NC1=NN(c2ccccc2)CC1C (stereo unspecified) , melting point reported as 149 to 150 °C

Entry CCOC(=O)C(=O)c1csc(NC(=O)Nc2ccccc2)n1 , melting point reported as 217 to 220 °C

Entry NC(=O)COc1ccc(C(=O)CN2CCN(c3ccncc3)CC2)cc1 , melting point reported as 247 to 248 °C

Entry CC(=O)c1ccc(OCCCN2CCC(c3noc4cc(F)ccc34)CC2)cc1C , melting point reported as 113 to 114 °C

Entry NS(=O)(=O)c1c(Cl)cccc1Cn1cncn1 , melting point reported as 175 to 178 °C

Entry O=C(COc1ccccc1)N[C@H]1C(=O)N[C@H]1CO (relative stereo) , melting point reported as 153 to 154 °C

====

melting point values, listed per item

O[C@H]1c2cc3ccccc3cc2[C@H](O)c2cc3ccccc3cc21 = 235 °C
O=C1NCC(c2ccc(F)cc2)N1CCCCS (configuration not stated) = 102 to 104 °C
CCN(C=Nc1ccc2c(c1)nc(N(C)C)c1cc(N=CN(CC)CC)ccc12)CC = 124 to 126 °C

Entry COC(=O)c1ccc(O)nc1C1=NC(C)(C(C)C)C(=O)N1 (configuration not stated) , melting point reported as 186 to 191 °C

Entry N#Cc1cccc(NC(=O)c2ccn(-c3ccc(Cl)cc3)c2)c1N1CCC(N2CCOCC2)CC1 , melting point reported as 220 °C

Entry Cc1cc(CCCOc2c(C)cc(-c3noc(CC(F)(F)F)n3)cc2C)on1 , melting point reported as 84 to 85 °C

Entry CCCCCCCCCCCCCCCCNc1ccc(C(=O)NS(=O)(=O)c2ccc([N+](=O)[O-])cc2)cc1 , melting point reported as 130 to 131 °C

Entry O=CC1=Cc2cc(OCc3ccccc3)ccc2OC1 , melting point reported as 112 to 114 °C

Entry CNC(=O)CC=C(CC(C)C)C(=O)O , melting point reported as 120 to 122 °C

====

OBSERVATION TYPE: melting point

// solved cases for melting point follow
C=CCN(CC(=O)OC(C)(C)C)c1c(N)c(=O)c1=O = 175 to 176 °C
CCc1nc2cc(C(C)=O)ccc2n1-c1ccc(CCOC(=O)NS(=O)(=O)c2ccc(C)cc2)cc1 = 188 to 190 °C
Cc1nn(-c2ccccn2)cc1COc1ccc(C=O)cc1 = 84 to 85 °C

Pending molecule:
Entry CCCCc1cn(Cc2ccc(-c3ccccc3C(=O)OC)cc2)c2cc(CO)ccc2c1=O , melting point reported as 140 °C

====

melting point values, listed per item

// solved cases for melting point follow
CCCOc1ccc(-c2ccc3c(c2)C=C(C(=O)O)CCS3(=O)=O)cc1 = 270 to 273 °C
CC1(COc2cccc(Br)c2)COC(C)(C)OC1 = 67 to 70 °C
C#CCOc1ccc([N+](=O)[O-])cc1 = 108 to 110 °C
Oc1ccccc1C1OCCO1 = 67 to 70 °C
COc1ccc2[nH]cc(C3CCC(=O)CC3)c2c1 = 103 to 106 °C

Entry Nc1cc2c(cn1)CC(c1ccc(Cl)cc1Cl)c1ccccc1-2 (stereo not drawn) , melting point reported as 189 to 193 °C

Entry CS(=O)(=O)c1ccc(-c2cc(=O)n(Cc3ccc(F)cc3)nc2-c2ccc(F)cc2)cc1 , melting point reported as 150 to 151 °C

Entry CC(C)c1cccc(C(C)C)c1NC(=O)C(Cc1ccc(OCc2ccccc2)cc1)NCc1ccccc1 (stereo not drawn) , melting point reported as 127 to 129 °C

Values were extracted from a melting point compilation (Tetko et al.; mined from patent text by program, amines drawn as free bases though some values may be those of a salt).
